Target: BLMFL (Homo sapiens, UniProt P54132 1-1417)
Sequence (P54132 whole entry): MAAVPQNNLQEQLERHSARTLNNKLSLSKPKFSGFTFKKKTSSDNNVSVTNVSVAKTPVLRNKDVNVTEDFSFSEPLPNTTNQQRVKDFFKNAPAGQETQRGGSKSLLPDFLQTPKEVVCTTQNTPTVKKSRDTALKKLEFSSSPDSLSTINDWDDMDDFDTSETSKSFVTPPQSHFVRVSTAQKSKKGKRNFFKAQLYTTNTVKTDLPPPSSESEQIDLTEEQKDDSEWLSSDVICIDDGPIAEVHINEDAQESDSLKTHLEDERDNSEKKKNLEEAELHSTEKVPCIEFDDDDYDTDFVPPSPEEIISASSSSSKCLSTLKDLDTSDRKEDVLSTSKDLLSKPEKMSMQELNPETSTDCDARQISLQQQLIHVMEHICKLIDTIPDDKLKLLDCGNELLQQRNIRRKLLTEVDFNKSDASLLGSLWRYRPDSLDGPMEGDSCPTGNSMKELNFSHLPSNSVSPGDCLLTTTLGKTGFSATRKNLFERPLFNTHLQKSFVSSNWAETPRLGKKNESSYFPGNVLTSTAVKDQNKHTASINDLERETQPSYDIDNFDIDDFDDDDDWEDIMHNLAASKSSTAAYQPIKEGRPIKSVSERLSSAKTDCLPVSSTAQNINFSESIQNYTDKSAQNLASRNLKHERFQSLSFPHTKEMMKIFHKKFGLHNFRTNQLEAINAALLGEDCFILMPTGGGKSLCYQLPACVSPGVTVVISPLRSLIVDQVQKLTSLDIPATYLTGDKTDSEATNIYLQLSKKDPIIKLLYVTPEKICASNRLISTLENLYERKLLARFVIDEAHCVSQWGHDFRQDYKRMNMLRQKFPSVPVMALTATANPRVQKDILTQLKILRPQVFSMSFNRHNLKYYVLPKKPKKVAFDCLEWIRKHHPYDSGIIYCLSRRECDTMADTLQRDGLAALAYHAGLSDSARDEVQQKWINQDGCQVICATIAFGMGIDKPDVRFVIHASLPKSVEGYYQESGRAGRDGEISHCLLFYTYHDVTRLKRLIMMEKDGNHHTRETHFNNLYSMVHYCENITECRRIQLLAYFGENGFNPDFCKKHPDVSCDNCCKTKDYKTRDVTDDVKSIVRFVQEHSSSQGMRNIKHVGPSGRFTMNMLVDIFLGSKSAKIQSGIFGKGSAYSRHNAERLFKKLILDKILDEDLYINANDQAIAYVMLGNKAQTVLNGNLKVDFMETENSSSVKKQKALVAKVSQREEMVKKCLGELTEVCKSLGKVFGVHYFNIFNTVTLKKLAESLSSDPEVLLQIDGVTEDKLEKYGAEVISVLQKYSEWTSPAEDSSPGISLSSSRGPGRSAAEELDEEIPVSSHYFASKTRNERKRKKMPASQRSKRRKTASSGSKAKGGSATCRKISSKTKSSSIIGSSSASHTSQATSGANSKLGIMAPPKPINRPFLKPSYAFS
Assay: fluorescence anisotropy; no ATP; 5 mM MgCl2; 50 mM Tris-HCl pH 7.5, 50 mM NaCl, 1 mM DTT, 5 mM MgCl2, 50 µg/mL BSA, 25 °C; 10 nM labeled DNA in direct titrations
Details: protein: recombinant; label: 3'-fluorescein; single strand
attributeMeasured: Kd
Answers without a unit are incomplete; give the number and then its unit.

query: For the binder ss54-FLU (ssDNA) DNA: TCCTTTTGATAAGAGGTCATTTTTGCGGATGGCTTAGAGCTTAATTGCGCAACG , what Kd is on record?
result: 61 nM

The origin of these recorded values is paper PMC8813930.
